All figures here come from PubChem BioAssay (NCI).

Test system: UACC-62 melanoma
experiment_notes: NCI tumour cell line growth inhibition, 48 h
Could you label it criterion met if measured TGI is 30 µM or higher, and criterion not met otherwise?

Look over these answered cases.
Oc1cccc2ccc(N/N=C/c3cc(CN4CCOCC4)c(O)c4ncccc34)nc12 :: criterion not met
Cc1nc2ccc(C(F)(F)F)cc2nc1NCc1ccc(Cl)c(Cl)c1 :: criterion not met
O=[N+]([O-])/C(C(Cl)=C(Cl)Cl)=C(/Cl)SCc1ccccc1 :: criterion not met

Query string: Please check the record COc1cc2c(c(O)c1OC)C(=O)[C@@H]1CCC(=O)N1C2 and state if its TGI is at or above 30 µM.
Result string: criterion met

Query string: Please check the record ClCCN(CCCl)c1ccc(/C=N/Nc2ccnc3ccccc23)cc1 and state if its TGI is at or above 30 µM.
Result string: criterion not met

Query string: Please check the record C[C@]12CC[C@@H]3c4cc(OC(F)F)c(OS(N)(=O)=O)cc4CC[C@H]3[C@@H]1CC[C@@H]2O and state if its TGI is at or above 30 µM.
Result string: criterion not met

Query string: Please check the record Cc1cccc2c3c(sc12)C(c1ccc(Cl)cc1)C(C#N)=C(N)O3 (configuration not stated) and state if its TGI is at or above 30 µM.
Result string: criterion not met

Query string: Please check the record Cc1ccc(/C(C#N)=C/c2cccc([N+](=O)[O-])c2)cc1 and state if its TGI is at or above 30 µM.
Result string: criterion met

Query string: Please check the record C[N+](C)(C)c1ncnc2c1ncn2C1CC(O)C(CO)O1 (configuration not stated) and state if its TGI is at or above 30 µM.
Result string: criterion met

Query string: Please check the record CC1(c2nc3ccccc3[nH]2)CCC(C(=O)O)C(C)(C)O1 (configuration not stated) and state if its TGI is at or above 30 µM.
Result string: criterion met

Query string: Please check the record Nc1ncnc2oc(C3OC(COC(=O)c4ccccc4)C(OC(=O)c4ccccc4)C3OC(=O)c3ccccc3)nc12 (configuration not stated) and state if its TGI is at or above 30 µM.
Result string: criterion met

Query string: Please check the record CN1C(c2ccccc2)CC(=O)C(N)C1c1ccccc1 (configuration not stated) and state if its TGI is at or above 30 µM.
Result string: criterion met

Query string: Please check the record O=S(=O)(/C=C/C(=C/c1ccccc1)S(=O)(=O)c1ccccc1)c1ccccc1 and state if its TGI is at or above 30 µM.
Result string: criterion not met

Query string: Please check the record O=C(c1ccccc1)N(C(=O)c1ccccc1)c1nc(SCc2ccccc2)ns1 and state if its TGI is at or above 30 µM.
Result string: criterion met
